Target: T1, Drg1 (diazaborine resistance gene 1), wild type, purified (S. cerevisiae, UniProt P32794 1-780)
T1 construct: Drg1 (AFG2), hexameric type-II AAA-ATPase of S. cerevisiae, wild type; Hexamer in the cryo-EM maps; also called DRG1 (AFG2); AAA-ATPase Drg1; source: overexpressed in yeast as GST fusion (CuSO4-induced), purified on GSH-agarose, eluted by Prescission protease cleavage
T1 sequence: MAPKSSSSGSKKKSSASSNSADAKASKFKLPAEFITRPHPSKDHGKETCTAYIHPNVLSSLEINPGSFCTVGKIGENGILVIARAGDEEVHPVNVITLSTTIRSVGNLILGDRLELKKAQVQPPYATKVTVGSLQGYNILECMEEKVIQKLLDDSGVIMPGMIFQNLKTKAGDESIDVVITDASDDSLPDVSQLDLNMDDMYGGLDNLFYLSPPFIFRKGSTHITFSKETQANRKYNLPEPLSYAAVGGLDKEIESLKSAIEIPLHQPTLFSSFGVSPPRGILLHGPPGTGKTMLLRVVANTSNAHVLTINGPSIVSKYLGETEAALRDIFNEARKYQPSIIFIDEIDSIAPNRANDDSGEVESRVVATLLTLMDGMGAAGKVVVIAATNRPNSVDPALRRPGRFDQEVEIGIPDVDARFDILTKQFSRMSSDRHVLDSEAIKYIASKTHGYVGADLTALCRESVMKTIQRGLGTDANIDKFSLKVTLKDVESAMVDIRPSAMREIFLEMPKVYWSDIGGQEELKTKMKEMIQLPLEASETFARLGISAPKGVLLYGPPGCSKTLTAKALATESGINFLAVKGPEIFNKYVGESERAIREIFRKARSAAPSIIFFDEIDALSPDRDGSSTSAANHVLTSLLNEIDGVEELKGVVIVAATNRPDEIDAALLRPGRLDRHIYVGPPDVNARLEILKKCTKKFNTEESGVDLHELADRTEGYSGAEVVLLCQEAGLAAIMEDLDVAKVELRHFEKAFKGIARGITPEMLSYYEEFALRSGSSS
Assay: SPR; Biacore X100; GST-Rlp24C amine-coupled on a CM5 chip, GST in the reference cell; 75-10,000 nM Drg1 injected with 1 mM ATPγS; 20 mM HEPES, 10 mM KCl, 2.5 mM MgCl2, 100 mM NaCl, 0.05% Tween-20, 1 mM DTT, pH 7.5; one-site binding hyperbola on normalized RU
Details: both partners purified
measured_quantity: pKd
Give bare numbers, as −log10 of the molar value.

pKd measured on GST-Rlp24C (Rlp24 C domain, aa 146-199) (domain or fragment, S. cerevisiae, UniProt Q07915 146-199, looked up, Ribosomal-like protein 24 (Rlp24) of S. cerevisiae, C domain, aa 146-199; In the ATPase assays a HIS6-tagged Rlp24C made in E. coli was used instead of the GST fusion; source: purified) AKEQERAESVSEQEESEEEEEDMEIDSDEEEEEQLEKQKILLKNRRRNTKKIAF = 5.57
